Attribution: patent US12180193B2

Items are presented alongside their recorded Dmax.
# experimental system: BRAF G466V (Homo sapiens, UniProt P15056, G466V)
# Construct: expressed in transfected cells
# Sequence (P15056 whole entry G466V): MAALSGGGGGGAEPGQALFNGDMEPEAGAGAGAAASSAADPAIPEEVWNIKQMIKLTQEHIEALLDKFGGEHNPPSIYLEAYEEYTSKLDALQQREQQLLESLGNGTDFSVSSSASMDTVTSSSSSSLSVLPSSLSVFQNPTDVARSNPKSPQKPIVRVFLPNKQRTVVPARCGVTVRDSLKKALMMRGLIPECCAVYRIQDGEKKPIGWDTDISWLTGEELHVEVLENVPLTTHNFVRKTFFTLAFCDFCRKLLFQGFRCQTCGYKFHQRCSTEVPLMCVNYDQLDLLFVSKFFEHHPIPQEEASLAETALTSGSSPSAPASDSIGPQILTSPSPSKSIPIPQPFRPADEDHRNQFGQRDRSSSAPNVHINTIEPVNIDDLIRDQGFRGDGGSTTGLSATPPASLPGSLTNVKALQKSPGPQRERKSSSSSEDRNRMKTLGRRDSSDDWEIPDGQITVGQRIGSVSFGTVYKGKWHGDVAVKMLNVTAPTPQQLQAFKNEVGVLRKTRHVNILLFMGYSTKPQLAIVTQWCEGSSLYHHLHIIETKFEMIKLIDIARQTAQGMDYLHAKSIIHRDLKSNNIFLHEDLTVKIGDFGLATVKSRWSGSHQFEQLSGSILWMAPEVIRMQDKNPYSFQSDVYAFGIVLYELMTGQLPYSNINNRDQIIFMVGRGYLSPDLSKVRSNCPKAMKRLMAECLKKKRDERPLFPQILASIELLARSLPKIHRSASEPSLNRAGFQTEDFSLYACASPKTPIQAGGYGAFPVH
# method description: Cellular assay of target protein degradation, T-Rex 293 cells stably transfected with HA-BRAF G466V (HA immunofluorescence, high content imaging)
# Format: cell-based
# assay conditions: maximum degradation observed, T-Rex 293 HA-BRAF G466V

Some entries whose results are on file:
O=C1CCC(N2Cc3cc(C4CCN(C[C@H]5C[C@H]6CC[C@@H](C5)N6c5ccc(-c6cnc7[nH]cc(C(=O)c8c(F)ccc(NS(=O)(=O)N9CC[C@@H](F)C9)c8F)c7c6)cc5)CC4)ccc3C2=O)C(=O)N1 (stereo partly shown) [Compound 188] | > 70%
C[C@H]1C[C@@H](CN2CCC(c3ccc4c(c3)CN([C@@H]3CCC(=O)NC3=O)C4=O)CC2)CCN1c1ccc(-c2cnc3[nH]cc(C(=O)c4c(F)ccc(NS(=O)(=O)N5CC[C@@H](F)C5)c4F)c3c2)cc1 [Compound 240] | > 70%
O=C1CCC(N2Cc3cc(C(O)CN4CCN(c5ccc(-c6cnc7[nH]cc(C(=O)c8c(F)ccc(NS(=O)(=O)N9CC[C@@H](F)C9)c8F)c7c6)cc5)CC4)ccc3C2=O)C(=O)N1 (stereo partly shown) [Compound 32] | 35 to 70%

Prompt: Please look up its Dmax: O=C1CC[C@H](N2Cc3cc(C4CCN(CC5CCN(c6ccc(-c7cnc8[nH]cc(C(=O)c9c(F)ccc(NS(=O)(=O)N%10CCC(F)(F)C%10)c9F)c8c7)cc6)CC5)CC4)ccc3C2=O)C(=O)N1 [Compound 232]
Completion: > 70%

###

Items are presented alongside their recorded DC50.
# experimental system: BRAF G466V (Homo sapiens, UniProt P15056, G466V)
# Construct: expressed in transfected cells
# method description: Cellular assay of target protein degradation, T-Rex 293 cells stably transfected with HA-BRAF G466V (HA immunofluorescence, high content imaging)
# Type: cell-based
# assay conditions: half maximal degradation, T-Rex 293 HA-BRAF G466V; read-out: BRaf G466V DC50

COc1cc(N2CC3(CN(CC4CCN(c5ccc(-c6cnc7[nH]cc(C(=O)c8c(F)ccc(NS(=O)(=O)N9CC[C@@H](F)C9)c8F)c7c6)cc5F)CC4)C3)C2)cc2c1C(=O)N(C1CCC(=O)NC1=O)C2 (some centres unmarked) [Compound 132] | < 1 nM

Now consider the entry below.
Prompt: Please look up its DC50: O=C1CCC(c2ccc(C3CCN(CC4CCN(c5ccc(-c6cnc7[nH]cc(C(=O)c8c(F)ccc(NS(=O)(=O)N9CC[C@@H](F)C9)c8F)c7c6)cc5)CC4)CC3)cn2)C(=O)N1 (some centres unmarked) [Compound 365]
Completion: 1 to 10 nM

###

# experimental system: BRAF V600E (Homo sapiens, UniProt P15056, V600E)
# Construct: expressed in transfected cells
# Sequence (P15056 whole entry V600E): as the sequence (P15056 whole entry G466V) above, with V466G, V600E counted along it
# method description: Cellular assay of target protein degradation, T-Rex 293 cells stably transfected with HA-BRAF_V600E (HA immunofluorescence, high content imaging)
# Format: cell-based
# assay conditions: half maximal degradation, T-Rex 293 HA-BRAF V600E; read-out: BRaf V600E DC50
Items are presented alongside their recorded DC50.

O=C1CC[C@H](N2Cc3cc(N4CC(CN5C[C@@H]6CN(c7ccc(-c8cnc9[nH]cc(C(=O)c%10c(F)ccc(NS(=O)(=O)N%11CC[C@@H](F)C%11)c%10F)c9c8)cc7)C[C@@H]6C5)C4)ccc3C2=O)C(=O)N1 | < 5 nM

Prompt: Please provide the recorded DC50 for O=C1CCC(c2ccc(C3CCN(CCC4CCN(c5ccc(-c6cnc7[nH]cc(C(=O)c8c(F)ccc(NS(=O)(=O)N9CC[C@@H](F)C9)c8F)c7c6)cc5)CC4)CC3)cc2F)C(=O)N1 (some centres unmarked) , tested on BRAF V600E (Homo sapiens, UniProt P15056, V600E).
Completion: 5 to 50 nM

###

# experimental system: BRAF V600E (Homo sapiens, UniProt P15056, V600E)
# Construct: expressed in transfected cells
# method description: Cellular assay of target protein degradation, T-Rex 293 cells stably transfected with HA-BRAF_V600E (HA immunofluorescence, high content imaging)
# Format: cell-based
# assay conditions: half maximal degradation, T-Rex 293 HA-BRAF V600E; read-out: BRaf V600E DC50
parameter measured: DC50

Prompt: Please provide the recorded DC50 for O=C1CCC(N2Cc3cc(CN4CCN(c5ccc(-c6cnc7[nH]cc(C(=O)c8c(F)ccc(NS(=O)(=O)N9CC[C@@H](F)C9)c8F)c7c6)cc5)C[C@H]4CO)ccc3C2=O)C(=O)N1 (stereo partly drawn) [Compound 112] , tested on BRAF V600E (Homo sapiens, UniProt P15056, V600E).
Completion: 50 to 500 nM

###

# experimental system: BRAF G466V (Homo sapiens, UniProt P15056, G466V)
# Construct: expressed in transfected cells
# method description: Cellular assay of target protein degradation, T-Rex 293 cells stably transfected with HA-BRAF G466V (HA immunofluorescence, high content imaging)
# Assay type: cell-based
# assay conditions: half maximal degradation, T-Rex 293 HA-BRAF G466V; read-out: BRaf G466V DC50
Items are presented alongside their recorded DC50.

Some entries whose results are on file:
O=C1CCC(N2Cc3cc(CCCN4CC5(C4)CN(c4ncc(-c6cnc7[nH]cc(C(=O)c8c(F)ccc(NS(=O)(=O)N9CC[C@@H](F)C9)c8F)c7c6)cn4)C5)ccc3C2=O)C(=O)N1 (stereo partly drawn) [Compound 147] | 1 to 10 nM
COc1cc(C2CCN(CC3CC4(C3)CN(c3ccc(-c5cnc6[nH]cc(C(=O)c7c(F)ccc(NS(=O)(=O)N8CC[C@@H](F)C8)c7F)c6c5)cc3)C4)CC2)cc2c1C(=O)N(C1CCC(=O)NC1=O)C2 (stereo partly drawn) [Compound 54] | < 1 nM
O=C1CCC(N2Cc3cc(N4CC5(CN(CC6CCN(c7ccc(-c8cnc9[nH]cc(C(=O)c%10c(F)ccc(NS(=O)(=O)N%11CCC(F)(F)C%11)c%10F)c9c8)cc7)CC6)C5)C4)ccc3C2=O)C(=O)N1 (stereo not drawn) [Compound 246] | 1 to 10 nM
O=C1CCC(N2Cc3cc(CCCCCN4CCN(c5ccc(-c6cnc7[nH]cc(C(=O)c8c(F)ccc(NS(=O)(=O)N9CC[C@@H](F)C9)c8F)c7c6)cc5)CC4)ccc3C2=O)C(=O)N1 (stereo partly drawn) [Compound 64] | < 1 nM
O=C1CC[C@H](N2Cc3cc(C[C@@H](O)CN4CC5(C4)CN(c4ccc(-c6cnc7[nH]cc(C(=O)c8c(F)ccc(NS(=O)(=O)N9CC[C@@H](F)C9)c8F)c7c6)cc4)C5)ccc3C2=O)C(=O)N1 [Compound 128] | 1 to 10 nM
O=C1CCC(N2Cc3cc(CCCN4CC5(C4)CN(c4ccc(-c6cnc7[nH]cc(C(=O)c8c(F)ccc(NS(=O)(=O)N9CCC(F)(F)C9)c8F)c7c6)cc4)C5)ccc3C2=O)C(=O)N1 (stereo not drawn) [Compound 248] | 1 to 10 nM

Prompt: Please look up its DC50: O=C1CC[C@@H](N2Cc3cc(/C=C/CN4CC5(C4)CN(c4ccc(-c6cnc7[nH]cc(C(=O)c8c(F)ccc(NS(=O)(=O)N9CC[C@@H](F)C9)c8F)c7c6)cc4)C5)ccc3C2=O)C(=O)N1 [Compound 39]
Completion: < 1 nM

Prompt: Also O=C1CCC(NC(=O)c2ccc(OCCCCN3CCN(c4ccc(-c5cnc6[nH]cc(C(=O)c7c(F)ccc(NS(=O)(=O)N8CC[C@@H](F)C8)c7F)c6c5)cc4)CC3)cc2F)C(=O)N1 (stereo partly drawn) [Compound 350] ?
Completion: > 30 nM

Prompt: Also C[C@@H](c1ncc(-c2cnc3[nH]cc(C(=O)c4c(F)ccc(NS(=O)(=O)N5CC[C@@H](F)C5)c4F)c3c2)cn1)N1CCN(CC2CCN(c3ccc4c(c3)CN([C@H]3CCC(=O)NC3=O)C4=O)CC2)CC1 [Compound 289] ?
Completion: 10 to 30 nM

###

Items are presented alongside their recorded Dmax.
# experimental system: BRAF G466V (Homo sapiens, UniProt P15056, G466V)
# Construct: expressed in transfected cells
# method description: Cellular assay of target protein degradation, T-Rex 293 cells stably transfected with HA-BRAF G466V (HA immunofluorescence, high content imaging)
# Assay type: cell-based
# assay conditions: maximum degradation observed, T-Rex 293 HA-BRAF G466V

Some entries whose results are on file:
CN(CCN1CCN(c2ccc3c(c2)CN(C2CCC(=O)NC2=O)C3=O)CC1)[C@H]1CC[C@H](Oc2ccc(-c3cnc4[nH]cc(C(=O)c5c(F)ccc(NS(=O)(=O)N6CC[C@@H](F)C6)c5F)c4c3)cc2)CC1 (stereo partly drawn) [Compound 145] | > 70%
O=C1CCC(N2Cc3cc(N4CCC(CN5CCN(Cc6ncc(-c7cnc8[nH]cc(C(=O)c9c(F)ccc(NS(=O)(=O)N%10CC[C@@H](F)C%10)c9F)c8c7)cn6)CC5)CC4)ccc3C2=O)C(=O)N1 (stereo partly drawn) [Compound 153] | > 70%
COc1cc(CN2CCN(c3ccc(-c4cnc5[nH]cc(C(=O)c6c(F)ccc(NS(=O)(=O)N7CC[C@@H](F)C7)c6F)c5c4)cc3)CC2)cc2c1C(=O)N(C1CCC(=O)NC1=O)C2 (stereo partly drawn) [Compound 102] | 35 to 70%

Prompt: Please look up its Dmax: O=C1CCC(N2Cc3cc(N4CC(CN5CCN(Cc6ncc(-c7cnc8[nH]cc(C(=O)c9c(F)ccc(NS(=O)(=O)N%10CC[C@@H](F)C%10)c9F)c8c7)cn6)CC5)C4)ccc3C2=O)C(=O)N1 (stereo partly drawn) [Compound 193]
Completion: 35 to 70%

Prompt: Also O=C1CCC(N2Cc3cc(CCOCCN4CCN(c5ccc(-c6cnc7[nH]cc(C(=O)c8c(F)ccc(NS(=O)(=O)N9CC[C@@H](F)C9)c8F)c7c6)cc5)CC4)ccc3C2=O)C(=O)N1 (stereo partly drawn) [Compound 148] ?
Completion: > 70%

Prompt: Also O=C1CC[C@@H](N2Cc3cc(N4CC(CN5CCN(C6(c7ncc(-c8cnc9[nH]cc(C(=O)c%10c(F)ccc(NS(=O)(=O)N%11CC[C@@H](F)C%11)c%10F)c9c8)cn7)CC6)CC5)C4)ccc3C2=O)C(=O)N1 [Compound 286] ?
Completion: 35 to 70%

Prompt: Also O=C1CC[C@@H](N2Cc3cc(N4CCC(CN5CCN(c6ccc(-c7cnc8[nH]cc(C(=O)c9c(F)ccc(NS(=O)(=O)N%10CC[C@@H](F)C%10)c9F)c8c7)cc6)CC5)CC4)ccc3C2=O)C(=O)N1 [Compound 224] ?
Completion: > 70%

Prompt: Also COc1ccc(NS(=O)(=O)N2CC[C@@H](F)C2)c(F)c1C(=O)c1c[nH]c2ncc(-c3ccc(N4CCC(CN5CCC(c6ccc7c(c6)CN([C@H]6CCC(=O)NC6=O)C7=O)CC5)CC4)cc3)cc12 [Compound 212] ?
Completion: > 70%

Prompt: Also O=C1CCC(N2Cc3cc(N4CCCN(CC5CCN(c6ccc(-c7cnc8[nH]cc(C(=O)c9c(F)ccc(NS(=O)(=O)N%10CC[C@@H](F)C%10)c9F)c8c7)cc6)CC5)CC4)ccc3C2=O)C(=O)N1 (stereo partly drawn) [Compound 324] ?
Completion: > 70%
